molecular target: human TRPM5 (Homo sapiens, UniProt Q9NZQ8); construct: expressed in transfected cells; assay: FLIPR membrane potential dye screening assay, ATP-stimulated, TRPM5-transfected HEK293 cells; type: cell-based; conditions: maximum percent inhibition at concentrations between 10 μM and 100 μM; HEK293 cells with human TRPM5; 10 μM ATP; versus negative control wells
Sequence (Q9NZQ8 whole entry): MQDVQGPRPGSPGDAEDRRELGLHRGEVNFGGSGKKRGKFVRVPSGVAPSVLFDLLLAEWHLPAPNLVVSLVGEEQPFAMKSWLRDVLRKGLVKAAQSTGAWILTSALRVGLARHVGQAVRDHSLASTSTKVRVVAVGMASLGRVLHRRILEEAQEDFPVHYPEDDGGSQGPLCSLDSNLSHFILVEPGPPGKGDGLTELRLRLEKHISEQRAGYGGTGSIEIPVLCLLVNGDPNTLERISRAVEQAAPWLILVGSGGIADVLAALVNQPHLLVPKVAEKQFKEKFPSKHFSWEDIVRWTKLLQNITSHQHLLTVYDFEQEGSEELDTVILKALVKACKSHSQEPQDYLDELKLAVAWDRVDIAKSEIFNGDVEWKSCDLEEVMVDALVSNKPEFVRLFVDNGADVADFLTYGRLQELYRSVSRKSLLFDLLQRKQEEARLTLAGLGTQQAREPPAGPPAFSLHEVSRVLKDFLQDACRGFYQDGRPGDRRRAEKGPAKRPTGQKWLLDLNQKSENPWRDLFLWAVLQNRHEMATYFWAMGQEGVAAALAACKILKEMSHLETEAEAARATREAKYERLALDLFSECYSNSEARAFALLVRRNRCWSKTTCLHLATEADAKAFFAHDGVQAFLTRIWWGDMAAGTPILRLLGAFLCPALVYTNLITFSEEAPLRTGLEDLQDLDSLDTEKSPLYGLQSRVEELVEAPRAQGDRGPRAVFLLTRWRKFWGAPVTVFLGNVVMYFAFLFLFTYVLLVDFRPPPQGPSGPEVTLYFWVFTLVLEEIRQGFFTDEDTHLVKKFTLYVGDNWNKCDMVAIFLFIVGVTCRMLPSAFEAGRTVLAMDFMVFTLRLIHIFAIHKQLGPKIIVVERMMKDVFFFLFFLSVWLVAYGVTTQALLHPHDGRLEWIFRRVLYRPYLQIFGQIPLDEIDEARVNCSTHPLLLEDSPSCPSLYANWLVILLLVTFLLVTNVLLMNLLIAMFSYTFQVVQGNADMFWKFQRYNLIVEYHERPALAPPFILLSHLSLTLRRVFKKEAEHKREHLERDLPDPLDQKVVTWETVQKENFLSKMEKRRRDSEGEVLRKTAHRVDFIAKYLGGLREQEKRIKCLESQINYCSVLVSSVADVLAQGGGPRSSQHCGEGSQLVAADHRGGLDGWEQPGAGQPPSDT
MEASURED_ATTRIBUTE: TRPM5 Activity (maximum percent inhibition) (%)
Provide the reading as a plain figure in %.

1) CS(=O)(=O)NCc1ccc(-c2nc(-c3ccccc3)c(-c3ccccc3)[nH]2)cc1 : 90
2) O=C(O)c1ccc(-c2nc(-c3ccccc3)c(-c3ccccc3)[nH]2)cc1 : 60
3) COC(=O)Nc1ccc(-c2nc(-c3ccccc3)c(-c3ccccc3)[nH]2)cc1 : 19
4) COC(=O)c1ccc(-c2nc(-c3ccccc3)c(-c3ccccc3)[nH]2)cc1 : 79
5) CC(=O)Nc1ccc(-c2nc(-c3ccccc3)c(-c3ccccc3)[nH]2)cc1 : 29
6) O=[N+]([O-])c1ccc(-c2nc(-c3ccccc3)c(-c3ccccc3)[nH]2)cc1 : 100
7) Oc1ccc(-c2nc(-c3ccccc3)c(-c3ccccc3)[nH]2)cc1 : 51
8) OCc1ccc(-c2nc(-c3ccccc3)c(-c3ccccc3)[nH]2)cc1 : 50
9) Nc1ccc(-c2nc(-c3ccccc3)c(-c3ccccc3)[nH]2)cc1 : 42

Next, consider the following molecule.
Challenge: Under human TRPM5 (Homo sapiens, UniProt Q9NZQ8): TRPM5 Activity (maximum percent inhibition) value of N#Cc1ccc(-c2nc(-c3ccccc3)c(-c3ccccc3)[nH]2)cc1 ?
Response given: 0

Cited source for all entries: patent US20070259875A1
